- TESTED_TARGET: T1, KOD DNA polymerase, purified (pET22b-KOD) (UniProt D0VWU9 1-774)
- T1 sequence: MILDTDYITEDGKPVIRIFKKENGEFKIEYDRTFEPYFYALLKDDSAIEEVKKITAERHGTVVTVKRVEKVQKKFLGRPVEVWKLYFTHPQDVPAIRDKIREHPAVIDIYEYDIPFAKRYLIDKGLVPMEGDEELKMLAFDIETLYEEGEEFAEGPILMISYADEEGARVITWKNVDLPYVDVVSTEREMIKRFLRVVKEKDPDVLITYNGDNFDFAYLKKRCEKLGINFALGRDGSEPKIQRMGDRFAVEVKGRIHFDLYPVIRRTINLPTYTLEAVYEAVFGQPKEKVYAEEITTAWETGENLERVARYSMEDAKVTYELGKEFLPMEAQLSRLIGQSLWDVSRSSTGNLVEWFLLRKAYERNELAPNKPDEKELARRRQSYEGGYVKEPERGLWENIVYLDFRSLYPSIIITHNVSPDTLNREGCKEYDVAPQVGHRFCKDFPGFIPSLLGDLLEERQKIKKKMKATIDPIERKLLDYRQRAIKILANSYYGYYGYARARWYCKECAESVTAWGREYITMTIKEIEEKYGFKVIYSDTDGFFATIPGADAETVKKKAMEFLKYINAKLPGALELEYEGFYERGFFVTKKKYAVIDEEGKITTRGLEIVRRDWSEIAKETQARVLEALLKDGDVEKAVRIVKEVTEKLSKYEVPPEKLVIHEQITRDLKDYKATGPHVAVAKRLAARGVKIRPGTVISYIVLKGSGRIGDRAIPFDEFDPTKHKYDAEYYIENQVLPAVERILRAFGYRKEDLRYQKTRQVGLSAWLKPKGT
- METHOD: EMSA; 2 nM DNA, no Mg2+; 10 mM Tris-HCl pH 7.9, 50 mM KCl, 1 mM EDTA, 5% glycerol, 1 mM DTT, 25 ug/ml BSA; no MgCl2, no poly(dI-dC); 20 min at room temperature; 6% PAGE in 0.5X TBE
- RUN_PARAMETERS: protein: recombinant; tags: His; label: 5' biotin
pKd: −log10 of the molar value.

[
  {
    "BINDER": "TACCGAGCTCTTACGCGTGCCTCTGACTTGCCTCAGAGC (ssDNA) [Bio-Olig2.5]",
    "pKd": "~7.40"
  }
]
